binders and their reported Confirm OD450 Duplicate1
Biological target: T1, human IgE (human, UniProt P01854 1-428)
T1 construct: written under the same molecule; also called IgE (Abcam ab65866); soluble IgE
T1 sequence (P01854 other isoform, or with tags, fused parts or gaps limits assumed, form in doubt): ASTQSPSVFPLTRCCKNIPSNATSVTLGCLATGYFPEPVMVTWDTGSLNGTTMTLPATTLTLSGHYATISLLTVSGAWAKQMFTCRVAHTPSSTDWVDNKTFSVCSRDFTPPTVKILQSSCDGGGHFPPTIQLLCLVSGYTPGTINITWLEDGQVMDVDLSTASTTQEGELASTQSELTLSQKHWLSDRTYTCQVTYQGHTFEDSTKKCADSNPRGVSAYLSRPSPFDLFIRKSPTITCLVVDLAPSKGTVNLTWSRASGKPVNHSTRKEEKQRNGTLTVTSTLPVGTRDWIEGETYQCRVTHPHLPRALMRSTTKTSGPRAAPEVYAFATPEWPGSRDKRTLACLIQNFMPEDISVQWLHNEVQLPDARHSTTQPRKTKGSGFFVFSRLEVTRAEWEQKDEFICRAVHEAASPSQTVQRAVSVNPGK
Experiment: ELISA, clone lysate on IgE-coated plate
Measured metric: Confirm OD450 Duplicate1

1) 6E11 (VHH, also called hzB10v40 VHH, CDR1 site 6 S to T) VHH: EVQLLESGGGEVQPGGSLRLSCVASGLTFSTYNMGWLRQAPGKEREFVGLSGSSSTSTYYAESVKGRFTISRDNAKNTVYLQMTSLRAEDTAVYYCAARRLLSTYWSDRSWDFWGQGTLVTVEP = 0.454
2) 9H9 (VHH, also called hzB10v40 VHH, CDR1 site 9 M to F) VHH: EVQLLESGGGEVQPGGSLRLSCVASGLTFSSYNFGWLRQAPGKEREFVGLSGSSSTSTYYAESVKGRFTISRDNAKNTVYLQMTSLRAEDTAVYYCAARRLLSTYWSDRSWDFWGQGTLVTVEP = 0.49
